Please respond with reported Mean log10 CFU/kidneys (±SD) for every item in the list.
Test system: C. albicans R303
protocol.details: Mouse candidiasis infection model, C. albicans density in kidneys
Assay type: in vivo, female CD-1 mice
setup.conditions: First run, 5 mg/kg IP 2 hr after infection, kidneys at 24 hr, neutropenic mice
Protocol: The objective of these studies was to evaluate the efficacy of test compounds in the mouse candidiasis infection model. […] The kidneys were collected from four mice in control group 1 (untreated) at 2 hr after infection, and from the remaining mice in the study at 24 hr after infection. […] The CFU/kidneys were determined from colony counts. Data were analyzed using one-way ANOVA with the Tukey-Kramer Multiple Comparisons Test (GraphPad InStat version 3.06, GraphPad Software, San Diego, Calif.). […]
Numbers only here, please. The scale is log10 CFU/kidneys.

Query: Need Mean log10 CFU/kidneys (±SD) of CCC(C)CC(C)CCCCCCCCC(=O)NC1CC(O)C(NCCNC(=O)OCCOC)NC(=O)C2C(O)CCN2C(=O)C(C(O)CCNC(=O)OCCOC)NC(=O)C(C(O)C(O)c2ccc(O)cc2)NC(=O)C2CC(O)CN2C(=O)C(C(C)O)NC1=O (stereo not drawn) , thanks.
Reply: 5.14

Query: Which Mean log10 CFU/kidneys (±SD) value is on record for CCCCCOc1ccc(-c2ccc(-c3ccc(C(=O)NC4CC(O)C(OCCCCCCOCCOCCOCCOCCOCCOCCOCCOC)NC(=O)C5C(O)C(C)CN5C(=O)C(C(C)O)NC(=O)C(C(O)C(O)c5ccc(O)cc5)NC(=O)C5CC(O)CN5C(=O)C(C(C)O)NC4=O)cc3)cc2)cc1 (stereo not drawn) ?
Reply: 5.08

Query: Query (compound): CCC(C)CC(C)CCCCCCCCC(=O)NC1CC(O)C(NCCNC(=O)CCCCCCCOCCOCCOCCOCCOCCOCCOCCOC)NC(=O)C2C(O)CCN2C(=O)C(C(O)CCNC(=O)CCCCCCCOCCOCCOCCOCCOCCOCCOCCOC)NC(=O)C(C(O)C(O)c2ccc(O)cc2)NC(=O)C2CC(O)CN2C(=O)C(C(C)O)NC1=O (stereo not drawn) ; field requested: Mean log10 CFU/kidneys (±SD)
Reply: 5.37

###

Hi there, I'd appreciate the recorded Difference from 24-hr control for every entry that follows.
Test system: C. albicans R303
protocol.details: Mouse candidiasis infection model, C. albicans density in kidneys
Type: in vivo, female CD-1 mice
setup.conditions: Second run, 5 mg/kg IP 2 hr after infection, kidneys at 24 hr
Marks after values point to notes of the source that are not given here.

Query: I'd like to know its Difference from 24-hr control. The molecule in question is CCC(C)CC(C)CCCCCCCCC(=O)NC1CC(O)C(NCCNC(=O)OCCOCCOCCOC)NC(=O)C2C(O)CCN2C(=O)C(C(O)CCN)NC(=O)C(C(O)C(O)c2ccc(O)cc2)NC(=O)C2CC(O)CN2C(=O)C(C(C)O)NC1=O (stereo not shown)
Reply: −0.78 ns log10 CFU/kidneys

Query: Quick check: Difference from 24-hr control of CCCCCOc1ccc(-c2ccc(-c3ccc(C(=O)NC4CC(O)C(OCCOCCOCCOC)NC(=O)C5C(O)C(C)CN5C(=O)C(C(C)O)NC(=O)C(C(O)C(O)c5ccc(O)cc5)NC(=O)C5CC(O)CN5C(=O)C(C(C)O)NC4=O)cc3)cc2)cc1 (stereo not shown) ?
Reply: −3.27*** log10 CFU/kidneys

Query: Given the entry CCCCCOc1ccc(-c2ccc(-c3ccc(C(=O)NC4CC(O)C(OCCOCCOC)NC(=O)C5C(O)C(C)CN5C(=O)C(C(C)O)NC(=O)C(C(O)C(O)c5ccc(O)cc5)NC(=O)C5CC(O)CN5C(=O)C(C(C)O)NC4=O)cc3)cc2)cc1 (stereo not shown) , report its measured Difference from 24-hr control.
Reply: −3.49*** log10 CFU/kidneys

Query: # lookup: Difference from 24-hr control of CCC(C)CC(C)CCCCCCCCC(=O)NC1CC(O)C(NCCNCCOC)NC(=O)C2C(O)CCN2C(=O)C(C(O)CCN)NC(=O)C(C(O)C(O)c2ccc(O)cc2)NC(=O)C2CC(O)CN2C(=O)C(C(C)O)NC1=O (stereo not shown)
Reply: −4.55*** log10 CFU/kidneys
